target: human CYP17 (Homo sapiens, UniProt P05093); assay: Cell-based human CYP17 inhibition assay, H295R adrenocortical carcinoma cells; set-up: H295R Adrenocortical carcinoma cells [NCI-H295A, ATCC Number CRL-2128, American Type Culture Collection; host or cells: H295R adrenocortical carcinoma cells; conditions: 16 hours at 37° C., read-out: CYP17 (human H295R adrenal cells)
Sequence (P05093 whole entry): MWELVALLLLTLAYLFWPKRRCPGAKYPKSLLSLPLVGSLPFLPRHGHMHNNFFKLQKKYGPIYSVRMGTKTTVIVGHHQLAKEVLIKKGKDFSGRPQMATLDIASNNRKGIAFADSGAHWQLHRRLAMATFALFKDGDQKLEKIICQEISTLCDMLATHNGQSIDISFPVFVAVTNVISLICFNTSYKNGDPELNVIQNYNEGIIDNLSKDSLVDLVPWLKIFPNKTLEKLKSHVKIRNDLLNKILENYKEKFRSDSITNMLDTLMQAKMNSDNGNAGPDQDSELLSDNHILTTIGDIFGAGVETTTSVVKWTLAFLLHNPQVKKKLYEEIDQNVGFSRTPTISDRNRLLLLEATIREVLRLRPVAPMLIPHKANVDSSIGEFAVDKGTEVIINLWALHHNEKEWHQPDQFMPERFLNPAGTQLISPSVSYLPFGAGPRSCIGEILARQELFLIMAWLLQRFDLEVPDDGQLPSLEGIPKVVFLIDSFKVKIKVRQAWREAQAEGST
Readout Name: IC50

Compound	Measurement Target	Test Value
CC(c1ccc(-c2ccc(=O)n(C(C)C)c2)s1)n1ccnc1 (stereo not drawn)	human CYP17 (Homo sapiens, UniProt P05093)	50 to 200 nM
CC(c1ccc(-c2ccc(F)cc2)cn1)n1ccnc1 (stereo not drawn) [Example 34]	human CYP17 (Homo sapiens, UniProt P05093)	< 50 nM
COc1ccc(-c2cccnc2C(C)n2ccnc2)cc1 (stereo not drawn)	human CYP17 (Homo sapiens, UniProt P05093)	< 50 nM
CCC(c1cnc(-c2cccc(F)c2)s1)n1ccnc1 (stereo not drawn)	human CYP17 (Homo sapiens, UniProt P05093)	50 to 200 nM
CC(c1ccc(-c2ccc(O)cc2)cn1)n1ccnc1 (stereo not drawn)	human CYP17 (Homo sapiens, UniProt P05093)	50 to 200 nM
CC(c1ccc(-c2cccc(F)c2)cn1)n1ccnc1 (stereo not drawn)	human CYP17 (Homo sapiens, UniProt P05093)	50 to 200 nM
COc1ccc(-c2ncc(C(C)n3ccnc3)s2)cn1 (stereo not drawn)	human CYP17 (Homo sapiens, UniProt P05093)	50 to 200 nM
CC(c1cnc(-c2ccc(C#N)cc2)s1)n1ccnc1 (stereo not drawn)	human CYP17 (Homo sapiens, UniProt P05093)	50 to 200 nM
COc1ccc(-c2ccc(C(C)(C)n3ccnc3)nc2)cc1	human CYP17 (Homo sapiens, UniProt P05093)	50 to 200 nM
CC(c1ccc(-c2ccoc2)cn1)n1ccnc1 (stereo not drawn)	human CYP17 (Homo sapiens, UniProt P05093)	201 to 10000 nM
CCC(c1ccc(-c2ccc(OC)cc2)cn1)n1ccnc1 (stereo not drawn)	human CYP17 (Homo sapiens, UniProt P05093)	50 to 200 nM
COc1ccc(-c2ccc(C(C)n3ccnc3)nc2)cc1 (stereo not drawn)	human CYP17 (Homo sapiens, UniProt P05093)	50 to 200 nM
COc1ccc(-c2ccc(C(C)n3ccnc3)s2)cc1 (stereo not drawn)	human CYP17 (Homo sapiens, UniProt P05093)	< 50 nM
CCC(c1ccc(-c2ccc(C(N)=O)cc2)cn1)n1ccnc1 (stereo not drawn)	human CYP17 (Homo sapiens, UniProt P05093)	201 to 10000 nM
CCC(c1ccc(-c2ccc(O)cc2)s1)n1ccnc1 (stereo not drawn)	human CYP17 (Homo sapiens, UniProt P05093)	< 50 nM
CC(C)CC(c1ccc(-c2ccc(O)cc2)s1)n1ccnc1 (stereo not drawn)	human CYP17 (Homo sapiens, UniProt P05093)	< 50 nM
COc1ccc(-c2ccc(C(CC(C)C)n3ccnc3)nc2)cc1 (stereo not drawn)	human CYP17 (Homo sapiens, UniProt P05093)	50 to 200 nM
COc1ccc(-c2ccc(C(CC(C)C)n3ccnc3)s2)cc1 (stereo not drawn)	human CYP17 (Homo sapiens, UniProt P05093)	< 50 nM
CC(c1ccc(-c2ccc(O)cc2)s1)n1ccnc1 (stereo not drawn)	human CYP17 (Homo sapiens, UniProt P05093)	< 50 nM
CCC(c1ccc(-c2ccc(C(=O)NC)cc2)cn1)n1ccnc1 (stereo not drawn)	human CYP17 (Homo sapiens, UniProt P05093)	201 to 10000 nM
CC(c1ccc(-c2ccc(F)cc2)nc1)n1ccnc1 (stereo not drawn)	human CYP17 (Homo sapiens, UniProt P05093)	201 to 10000 nM
